Below is a list of entries, each paired with its recorded remaining at 6 h value.
TEST SUMMARY: Stability in human plasma assessed as parent compound remaining measured after 6 hrs by LC-MS/MS analysis
Assay type: ADME, cell-free
RECORDED CONDITIONS: read-out: Stabilty
Where a SMILES comes first, the peptide text is derived from it. [ ]: non-standard residue; d: D form. dTrp(1-Me) = Cn1cc(C[C@@H](N)C(=O)O)c2ccccc21
Field: numeric (%). Do not append units.

Would you please look over these solved cases?
> print(dat)
                                   compound           readout  quantitative.readout
1  CC(C)C(NC(=O)[C@H](N)Cc1cn(C)c2ccccc12)C(=O)O.Cl (single isomer, unassigned)  remaining at 6 h                    68
2  C[C@H](N)C(=O)N[C@H](Cc1cn(C)c2ccccc12)C(=O)O.Cl  remaining at 6 h                    65
3  Cl.Cn1cc(C[C@@H](NC(=O)[C@@H](N)CCC(N)=O)C(=O)O)c2ccccc21  remaining at 6 h                    93

QUERY: Give reported remaining at 6 h value for Cl.Cn1cc(C[C@@H](N)C(=O)OCCC2CCOCC2)c2ccccc21
RESULT: 85

QUERY: Give reported remaining at 6 h value for CC[C@H](C)[C@H](N)C(=O)N[C@H](Cc1cn(C)c2ccccc12)C(=O)O.Cl
RESULT: 84

QUERY: Give reported remaining at 6 h value for CN(C)CCOC(=O)[C@H](N)Cc1cn(C)c2ccccc12.Cl
RESULT: 10

QUERY: Give reported remaining at 6 h value for Cl.Cn1cc(C[C@@H](NC(=O)CN)C(=O)O)c2ccccc21 (H-Gly-[dTrp(1-Me)]-OH)
RESULT: 78

QUERY: Give reported remaining at 6 h value for Cl.Cn1cc(C[C@@H](N)C(=O)N[C@H](Cc2cn(C)c3ccccc23)C(=O)O)c2ccccc21
RESULT: 92

QUERY: Give reported remaining at 6 h value for CC(C)[C@H](N)C(=O)N[C@H](Cc1cn(C)c2ccccc12)C(=O)O.Cl
RESULT: 79

QUERY: Give reported remaining at 6 h value for Cl.Cn1cc(C[C@@H](NC(=O)[C@@H](N)CCC(=O)O)C(=O)O)c2ccccc21
RESULT: 90

QUERY: Give reported remaining at 6 h value for Cl.Cn1cc(C[C@@H](N)C(=O)OCCC2CCNCC2)c2ccccc21
RESULT: 27
